The values you see were collected from patent US6780853B1.

Each item that follows carries a reported % of Inhibition.
test system: Progesterone Receptors; assay: Inhibition of 3H-Progesterone Binding to the Bovine Uteral Progesterone Receptors; conditions: competitor 10^−6M; 3H-progesterone 0.15 nM
Please format your answer as a value with the unit trailing.

compound="CCC(=O)[C@@]1(C)CC[C@H]2[C@@H]3CCC4=CC(=O)CCC4=C3CC[C@@]21C [Example R5020]" reported=100%
compound="C[C@]12CC[C@@H](O)C[C@H]1CC[C@@H]1[C@@H]2CC[C@]2(C)[C@@H](C(=O)CO)CC[C@@H]12 [5β-pregnan-3α,21-diol-20-one, 5β-pregnan-3α,21-diol-20-one]" reported=6%
compound="CC(=O)[C@H]1CC[C@H]2[C@@H]3CC[C@@H]4C[C@H](O)CC[C@]4(C)[C@H]3CC[C@]12C [5β-pregnan-3α-of-20-one, 5β-pregnan-3α-ol-20 -one]" reported=9%
compound="CC(=O)[C@H]1CC[C@H]2[C@@H]3CC[C@H]4C[C@](C)(O)CC[C@]4(C)[C@H]3CC[C@]12C [5α-pregnan-3α-ol-3β-methyl-20-one, 3α-hydroxy-3β-methyl-5α-pregnan-20-one]" reported=4%
compound="CC(O)C1CCC2C3CCC4CC(O)CCC4(C)C3CCC12C (stereo not drawn) [5β-pregnan-3α,20α-diol]" reported=0%

Would you kindly share the measured % of Inhibition for CC(=O)[C@H]1CC[C@H]2[C@@H]3CC[C@H]4C[C@H](O)CC[C@]4(C)[C@H]3CC[C@]12C [3α-Hydroxy-5α-pregnan-20-one, reference compound] ? 14%
